Cited source: ChEMBL document CHEMBL1158515

# System under test: Prostaglandin D2 receptor 2 (Homo sapiens, UniProt Q9Y5Y4)
# Sequence (Q9Y5Y4 whole entry): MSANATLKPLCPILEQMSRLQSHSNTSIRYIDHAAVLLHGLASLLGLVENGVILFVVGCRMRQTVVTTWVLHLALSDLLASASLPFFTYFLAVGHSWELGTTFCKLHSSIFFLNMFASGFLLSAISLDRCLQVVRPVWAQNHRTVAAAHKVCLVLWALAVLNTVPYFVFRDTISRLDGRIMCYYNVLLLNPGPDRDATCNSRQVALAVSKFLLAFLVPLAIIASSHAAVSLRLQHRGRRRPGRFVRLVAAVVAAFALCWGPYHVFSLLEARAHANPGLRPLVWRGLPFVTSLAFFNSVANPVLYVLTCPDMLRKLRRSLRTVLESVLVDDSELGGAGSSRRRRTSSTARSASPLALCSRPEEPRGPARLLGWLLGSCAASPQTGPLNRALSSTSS
# Procedure text: Antagonist activity at human CRTH2 receptor expressed in HEK285-7 cells assessed as inhibition of beta arrestin translocation by bioluminescence resonance energy transfer assay
# Format: functional, cell-based
Classify: class 1 when IC50 is strictly less than 1000 nM; class 0 when IC50 is not.

1. O=C(O)Cc1sc(Cc2ccccc2-c2ccccc2)nc1-c1ccc(Cl)cc1 ... class 1
2. O=C(O)Cc1sc(Cc2ccc(Cl)cc2)nc1-c1ccccc1 ... class 1
3. O=C(O)Cc1sc(Nc2ccccc2)nc1-c1ccc(Oc2ccccc2)cc1 ... class 1
4. COc1ccc(-c2nc(-c3ccccc3)c(CC(=O)O)s2)cc1 ... class 0
5. N#Cc1cccc(-c2ccccc2Cc2nc(-c3ccc(F)cc3)c(CC(=O)O)s2)c1 ... class 0
6. N#Cc1ccc(-c2ccccc2Cc2nc(-c3ccc(F)cc3)c(CC(=O)O)s2)cc1 ... class 1
7. O=C(O)Cc1sc(Nc2ccccc2)nc1-c1ccc(-c2ccccc2)cc1 ... class 0
8. COc1ccccc1Nc1nc(-c2ccc(F)cc2)c(CC(=O)O)s1 ... class 0
9. O=C(O)Cc1sc(Cc2ccccc2-c2ccccc2)nc1-c1ccc(F)cc1 ... class 1
10. COc1cccc(-c2ccccc2Cc2nc(-c3ccc(F)cc3)c(CC(=O)O)s2)c1 ... class 1
11. O=C(O)Cc1sc(Nc2ccc(C(F)(F)F)cc2)nc1-c1ccc(Cl)cc1 ... class 0
12. O=C(O)Cc1sc(Nc2ccccc2)nc1-c1ccc(Cl)cc1 ... class 0
13. COc1ccc(-c2ccccc2Cc2nc(-c3ccc(F)cc3)c(CC(=O)O)s2)cc1 ... class 1
14. O=C(O)Cc1sc(Cc2ccccc2-c2ccc3c(c2)OCO3)nc1-c1ccc(F)cc1 ... class 0
15. COc1ccccc1Nc1nc(-c2ccc(-c3ccccc3)cc2)c(CC(=O)O)s1 ... class 0
16. Cc1ccc(Nc2nc(-c3ccc(Cl)cc3)c(CC(=O)O)s2)cc1 ... class 1
17. O=C(O)Cc1sc(Cc2ccccc2)nc1-c1ccc(F)cc1 ... class 1
18. O=C(O)Cc1sc(Nc2ccccc2)nc1-c1ccccc1 ... class 0
19. O=C(O)Cc1sc(Cc2ccc(Cl)cc2)nc1-c1ccc(Cl)cc1 ... class 1
20. COc1ccc(Nc2nc(-c3ccccc3)c(CC(=O)O)s2)cc1 ... class 0

----------
# System under test: Prostaglandin D2 receptor 2 (Homo sapiens)
# Procedure text: Antagonist activity at human CRTH2 receptor expressed in HEK285-7 cells assessed as inhibition of beta arrestin translocation by bioluminescence resonance energy transfer assay relative to control
# Assay type: functional, cell-based
Below, each entry is listed with its recorded Efficacy.
Measured parameter: Efficacy

1. COc1ccc(-c2nc(Nc3ccccc3)sc2CC(=O)O)cc1 ... > 70%
2. COc1ccc(-c2nc(-c3ccc(Cl)cc3)sc2CC(=O)O)cc1 ... > 70%
3. O=C(O)Cc1sc(Cc2ccccc2Br)nc1-c1ccc(F)cc1 ... > 70%
4. O=C(O)Cc1sc(Cc2ccccc2-c2ccc3c(c2)OCO3)nc1-c1ccc(F)cc1 ... > 70%
5. COc1ccccc1Nc1nc(-c2ccc(Oc3ccccc3)cc2)c(CC(=O)O)s1 ... > 70%
6. N#Cc1ccc(-c2ccccc2Cc2nc(-c3ccc(F)cc3)c(CC(=O)O)s2)cc1 ... 30%

----------
# System under test: Prostaglandin D2 receptor 2 (Homo sapiens)
# Procedure text: Displacement of[3H]PGD2 from human CRTH2 receptor expressed in african green monkey COS7 cells
# Format: cell-based, COS-7
Classify: 1 when IC50 is strictly less than 0.8 µM; 0 when IC50 is not.

1) O=C(O)Cc1sc(-c2ccccc2)nc1-c1ccc(Cl)cc1 ... 1
2) COc1ccc(-c2nc(-c3ccc(Oc4ccccc4)cc3)sc2CC(=O)O)cc1 ... 1
3) COc1ccc(Cc2nc(-c3ccccc3)c(CC(=O)O)s2)cc1OC ... 1
4) CN(C)c1ccc(-c2nc(-c3ccc(Br)cc3)c(CC(=O)O)s2)cc1 ... 1
5) COc1ccc(-c2nc(-c3ccccc3)sc2CC(=O)O)cc1 ... 0
6) O=C(O)Cc1sc(Cc2ccccc2Oc2ccccc2)nc1-c1ccc(Cl)cc1 ... 1
7) O=C(O)Cc1sc(-c2ccc(Cl)cc2)nc1-c1ccccc1 ... 0
8) O=C(O)Cc1sc(-c2ccc(Oc3ccccc3)cc2)nc1-c1ccc(Cl)cc1 ... 1
9) O=C(O)Cc1sc(Nc2ccccc2Cl)nc1-c1ccc(Oc2ccccc2)cc1 ... 1
10) O=C(O)Cc1sc(-c2ccccc2)nc1-c1ccc(F)cc1 ... 0
11) CC(C)c1ccc(Nc2nc(-c3ccc(Cl)cc3)c(CC(=O)O)s2)cc1 ... 0
12) O=C(O)Cc1sc(Nc2ccc(Cl)cc2)nc1-c1ccc(-c2ccccc2)cc1 ... 0
13) COc1ccc(-c2nc(-c3ccc(Br)cc3)c(CC(=O)O)s2)cc1 ... 1
14) O=C(O)Cc1sc(-c2ccc(F)cc2)nc1-c1ccccc1 ... 0
15) O=C(O)Cc1sc(-c2ccccc2)nc1-c1ccc(-c2ccccc2)cc1 ... 1
16) O=C(O)Cc1sc(Nc2ccccc2)nc1-c1ccc(F)cc1 ... 1
17) COc1ccccc1-c1nc(-c2ccc(Br)cc2)c(CC(=O)O)s1 ... 1
18) COc1ccccc1Nc1nc(-c2ccc(-c3ccccc3)cc2)c(CC(=O)O)s1 ... 1
19) CCc1ccc(-c2nc(-c3ccccc3OC)sc2CC(=O)O)cc1 ... 0
20) O=C(O)Cc1sc(Nc2ccc(Cl)cc2)nc1-c1ccc(F)cc1 ... 0
21) O=C(O)Cc1sc(Nc2ccccc2)nc1-c1ccccc1 ... 1
22) O=C(O)Cc1sc(Cc2ccc(Cl)cc2)nc1-c1ccc(Oc2ccccc2)cc1 ... 1
23) O=C(O)Cc1sc(-c2ccccc2)nc1-c1ccccc1 ... 0
24) COc1ccccc1Nc1nc(-c2ccc(Oc3ccccc3)cc2)c(CC(=O)O)s1 ... 1
25) Cc1ccc(-c2nc(-c3ccc(Cl)cc3)sc2CC(=O)O)c(C)c1 ... 0
26) COc1cccc(-c2ccccc2Cc2nc(-c3ccc(F)cc3)c(CC(=O)O)s2)c1 ... 1
27) N#Cc1ccc(-c2ccccc2Cc2nc(-c3ccc(F)cc3)c(CC(=O)O)s2)cc1 ... 1
28) N#Cc1cccc(-c2ccccc2Cc2nc(-c3ccc(F)cc3)c(CC(=O)O)s2)c1 ... 1
29) O=C(O)Cc1sc(Nc2ccc3ccccc3c2)nc1-c1ccc(Oc2ccccc2)cc1 ... 1
